# Method Notes: protein stability index of a GFP-peptide fusion (yeast GPS) (PSI 1-4); higher = more stable; sorted into four equal gates, so the index is relative within each strain
# Measurement Setup: pdr5∆
Measurement Kind: protein stability index
The answer should be a number; do not append a unit.

PRINNISAEDRADTDLA [SNF2] ... 2.51
DLLKFENISLAEFILKN [BRR2] ... 3.3
VDIYTHFTSPIRRYCDV [DIS3] ... 1.91

Asked: Suppose we examine the sequence FTTLLESKQDGLSILFL [YML103C/NUP188] ; what protein stability index value has been reported?
Given back: 2.68

Asked: Suppose we examine the sequence RMSSEEVNSLLLQVNKT [GRR1] ; what protein stability index value has been reported?
Given back: 3.13

Asked: Suppose we examine the sequence LVRELYQWRDLIARRDD [RRP6] ; what protein stability index value has been reported?
Given back: 2.77

Asked: Suppose we examine the sequence LKLLAKSHVLLATPVQF [BRR2] ; what protein stability index value has been reported?
Given back: 1.4

----------
# Method Notes: protein stability index of a GFP-peptide fusion (yeast GPS) (PSI 1-4); higher = more stable; sorted into four equal gates, so the index is relative within each strain
# Measurement Setup: san1∆
Measurement Kind: protein stability index
The answer should be a number; do not append a unit.

Below, each entry is followed by its recorded protein stability index result.
LAKTKENYDAKIELEKK [YIL149C/MLP2] ... 3.05
VLTAAGVERLIFYPDEY [PRE3] ... 2.9
NLRLKILTIIEEYKKSL [GRR1] ... 1.86
GNIFSNIGTPSFNMAQI [SNF5] ... 3.05
LNVSNTKENGDFTLPED [PRP8] ... 3.12

Asked: Suppose we examine the sequence TIKVAGTPLLEVRGQVP [SNU114] ; what protein stability index value has been reported?
Given back: 2.94

Asked: Suppose we examine the sequence GGKAGSAAKASQSRSAK [HTA1] ; what protein stability index value has been reported?
Given back: 2.84

Asked: Suppose we examine the sequence SRILKAQSRNVEIEKRI [YGR119C/NUP57] ; what protein stability index value has been reported?
Given back: 2.98

Asked: Suppose we examine the sequence EVFQLRIFVKEILEKCA [GAL11] ; what protein stability index value has been reported?
Given back: 2.19

Asked: Suppose we examine the sequence GKIQENIPFWKHVGFEL [SRP72] ; what protein stability index value has been reported?
Given back: 2.37

Asked: Suppose we examine the sequence YGGSRCANCVKERIVRA [RPL34B] ; what protein stability index value has been reported?
Given back: 2.87

Asked: Suppose we examine the sequence RFTPGSFTNYITRSFKE [RPS0A] ; what protein stability index value has been reported?
Given back: 2.93

Asked: Suppose we examine the sequence PVVRAPTVKYNRKVRAG [RPL13A] ; what protein stability index value has been reported?
Given back: 1.98

Asked: Suppose we examine the sequence APEQQVQQFAQLPVGFK [UBP6] ; what protein stability index value has been reported?
Given back: 3.09

----------
# Method Notes: protein stability index of a GFP-peptide fusion (yeast GPS) (PSI 1-4); higher = more stable; sorted into four equal gates, so the index is relative within each strain
# Measurement Setup: pdr5∆
protein stability index by entry:
The answer should be a number; do not append a unit.

YVGEVIKIVSDKKVLVK [RPT6] ... 2.9
NEKKTETNAKPFSFSSA [YLR335W/NUP2] ... 3.28
DGKGAVYSFDPVGSYER [PRE7] ... 2.57
NSMDMVDGMAKVPIGLI [RGR1] ... 3.37
IPSKNTPDASKPSFSFG [YLR335W/NUP2] ... 3.14

Asked: Suppose we examine the sequence QWLNNALKRSYGIFGEG [POP8] ; what protein stability index value has been reported?
Given back: 3.02

Asked: Suppose we examine the sequence AKRNLPHTTLVNECIAQ [CDC53] ; what protein stability index value has been reported?
Given back: 2.48

----------
protein stability index by entry:
# Method Notes: protein stability index of a GFP-peptide fusion (yeast GPS) (PSI 1-4); higher = more stable; sorted into four equal gates, so the index is relative within each strain
# Measurement Setup: pdr5∆
The answer should be a number; do not append a unit.

Below, each entry is followed by its recorded protein stability index result.
AAVETLYQDMAARHRAR [RPL20A] ... 3.23
GPANNPNEFMQFKSKEV [PRP8] ... 3.31
VLDHQRAIPFRRFNSSI [RPL17A] ... 2.39
IDYKLRVLTQDGRVYIG [SMB1] ... 2.71
KVEKGVNIEPFNIDDEI [LIN1] ... 3
GRKYTTLGKLSTSVGWK [RPL16B] ... 1.94
TIRYPDPNIKVNDTVKI [RPS4A] ... 2.87

Let us examine a further case.
Asked: Suppose we examine the sequence TLAYDRGHRIRREFKQY [PRP8] ; what protein stability index value has been reported?
Given back: 2.63

----------
# Method Notes: protein stability index of a GFP-peptide fusion (yeast GPS) (PSI 1-4); higher = more stable; sorted into four equal gates, so the index is relative within each strain
# Measurement Setup: pdr5∆
Quick rule for you: protein stability index at 2 or higher means fulfilled, lower means not fulfilled.

Worked set:
NYGMIAINPGRVAASFS [FAS1] ... not fulfilled
LPPEKIYSPLHSFIKML [SIR2] ... not fulfilled
QQQQQQNGQQPPTTSNL [YML103C/NUP188] ... fulfilled
ILNSYGVLKPDITFFGE [SIR2] ... fulfilled
EKKNDENSTSNSKPEKS [YLR335W/NUP2] ... fulfilled

Asked: Evaluate DKLSVSEISDGKLKRCS [SIN4] : protein stability index at minimum 2?
Given back: fulfilled

Asked: Evaluate GDVGKNHITEFPSIPLP [RPC31] : protein stability index at minimum 2?
Given back: fulfilled

Asked: Evaluate PFTDITVEGISKLLREH [RPB2] : protein stability index at minimum 2?
Given back: fulfilled

Asked: Evaluate KLLQLFLTPMDSIDLAP [YML103C/NUP188] : protein stability index at minimum 2?
Given back: not fulfilled

Asked: Evaluate SHEERIEAIDEYNKPNS [ISW2] : protein stability index at minimum 2?
Given back: fulfilled

Asked: Evaluate LAKTKENYDAKIELEKK [YIL149C/MLP2] : protein stability index at minimum 2?
Given back: fulfilled

Asked: Evaluate APVETKKKRFEIKKWTA [HRT1] : protein stability index at minimum 2?
Given back: fulfilled

Asked: Evaluate TIFNLPKNKLVPTLEAK [FAS1] : protein stability index at minimum 2?
Given back: fulfilled

Asked: Evaluate IETVMTQEQFVKRRRDM [SRB4] : protein stability index at minimum 2?
Given back: fulfilled

Asked: Evaluate STGPTGAVSLNPSITRL [RRP4] : protein stability index at minimum 2?
Given back: fulfilled

Asked: Evaluate PYMPYYYYYHPMNAPTP [DSN1] : protein stability index at minimum 2?
Given back: fulfilled

Asked: Evaluate RLKVFEGIPPPYDKKKR [RPL16A] : protein stability index at minimum 2?
Given back: fulfilled

----------
# Method Notes: protein stability index of a GFP-peptide fusion (yeast GPS) (PSI 1-4); higher = more stable; sorted into four equal gates, so the index is relative within each strain
# Measurement Setup: san1∆
Measurement Kind: protein stability index
The answer should be a number; do not append a unit.

Asked: Suppose we examine the sequence DLRLIKVPQQAAGKRIS [SMC1] ; what protein stability index value has been reported?
Given back: 1.1

Asked: Suppose we examine the sequence IIPSRMGEAQTGANFDD [REC8] ; what protein stability index value has been reported?
Given back: 3.04

Asked: Suppose we examine the sequence GLSVTQKVFVRSRNGGA [DIS3] ; what protein stability index value has been reported?
Given back: 1.4

----------
# Method Notes: protein stability index of a GFP-peptide fusion (yeast GPS) (PSI 1-4); higher = more stable; sorted into four equal gates, so the index is relative within each strain
# Measurement Setup: doa10∆
Measurement Kind: protein stability index
The answer should be a number; do not append a unit.

GVIDDSFDVAISTACPR [SMC4] ... 2.59
RNDKTLELMDSKKTGQF [POP1] ... 3.34
DQPQSSEAKRTKFSNPA [BRR2] ... 3.1

Asked: Suppose we examine the sequence DLSLNIHPIPSVTVSQG [YMR129W/POM152] ; what protein stability index value has been reported?
Given back: 1.98

Asked: Suppose we examine the sequence VSVEGVNVEKFNVEYFA [RPL6A] ; what protein stability index value has been reported?
Given back: 2.91

Asked: Suppose we examine the sequence FAGSNNQPHQSQTPSFN [YOR098C/NUP1] ; what protein stability index value has been reported?
Given back: 2.68

Asked: Suppose we examine the sequence ETQVEVEKNEIGKMYDE [NNF1] ; what protein stability index value has been reported?
Given back: 3.05

Asked: Suppose we examine the sequence STSVGWKYEDVVAKLED [RPL16B] ; what protein stability index value has been reported?
Given back: 3.31

Asked: Suppose we examine the sequence SGWTPFHIACSVGNLEV [NAS6] ; what protein stability index value has been reported?
Given back: 1.8

Asked: Suppose we examine the sequence LADILKANISLETLEHN [RPO21] ; what protein stability index value has been reported?
Given back: 2.96

Asked: Suppose we examine the sequence KAKAQAQAQAQAQAQVY [PGD1] ; what protein stability index value has been reported?
Given back: 2.96

Asked: Suppose we examine the sequence LENATWTMRIEGRLLDN [SNF12] ; what protein stability index value has been reported?
Given back: 2.64

Asked: Suppose we examine the sequence FDERIKFANQLHDEYLV [RPN3] ; what protein stability index value has been reported?
Given back: 1.65

Asked: Suppose we examine the sequence FGAPNNPNSTAITADLG [YGL172W/NUP49] ; what protein stability index value has been reported?
Given back: 3.04
